system: SK-MEL3; experiment: Anticancer activity against human SK-MEL3 cells assessed as reduction in cell viability incubated for 24 hrs by MTT assay; assay type: functional, cell-based; details: SK-MEL3, 24 h
The label is Fulfilled for IC50 below 2 µM and Not fulfilled for IC50 equal to or exceeding 2 µM.

The following molecules have reported results that may help.
molecule	label class
O=c1ccc2ccc(O)cc2o1 [UMBELLIFERONE]	Not fulfilled
C[C@H]1[C@H](OC(=O)CCC(=O)Oc2cc3ccccc3oc2=O)O[C@@H]2C[C@]3(C)CC[C@H]4[C@H](C)CC[C@@H]1[C@@]24OO3	Fulfilled
Nc1ccc2c(C(F)(F)F)cc(=O)oc2c1	Fulfilled
CC(=O)O[C@H]1C(=O)[C@@]2(C)[C@H]([C@H](OC(=O)c3ccccc3)[C@]3(O)C[C@H](OC(=O)[C@H](O)[C@@H](NC(=O)c4ccccc4)c4ccccc4)C(C)=C1C3(C)C)[C@]1(OC(C)=O)CO[C@@H]1C[C@@H]2O [PACLITAXEL]	Not fulfilled

Now look at this entry.
Query string: Lab log: compare recorded IC50 with 2 µM; is it strictly lower for `C[C@H]1[C@H](OC(=O)CCC(=O)Nc2ccc3c(C(F)(F)F)cc(=O)oc3c2)O[C@@H]2C[C@]3(C)CC[C@H]4[C@H](C)CC[C@@H]1[C@@]24OO3` ?
Result string: Fulfilled
